B1: library; a variant is named by its letters at N, in order (parent)
chain: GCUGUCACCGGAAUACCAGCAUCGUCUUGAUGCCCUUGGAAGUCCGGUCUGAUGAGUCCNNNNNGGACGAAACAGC

Variants of: B1
Assay: normalized RNA/DNA level without ligand (relative to sTRSVctl = 100) (log10 (% of sTRSVctl)); higher = less ribozyme self-cleavage, higher mRNA level
Conditions: HEK293T, reporter: mCherry (pCS4076), ligand present: no
Reported normalized RNA/DNA level without ligand (log10) by item:
Assay metric: normalized RNA/DNA level without ligand (log10)

- GCUGUCACCGGAAUACCAGCAUCGUCUUGAUGCCCUUGGAAGUCCGGUCUGAUGAGUCCAGCCAGGACGAAACAGC [AGCCA]: 1.86
- GCUGUCACCGGAAUACCAGCAUCGUCUUGAUGCCCUUGGAAGUCCGGUCUGAUGAGUCCCAUGCGGACGAAACAGC [CAUGC]: 1.98
- GCUGUCACCGGAAUACCAGCAUCGUCUUGAUGCCCUUGGAAGUCCGGUCUGAUGAGUCCGCAAUGGACGAAACAGC [GCAAU]: 1.78
- GCUGUCACCGGAAUACCAGCAUCGUCUUGAUGCCCUUGGAAGUCCGGUCUGAUGAGUCCUCAAGGGACGAAACAGC [UCAAG]: 1.79
- GCUGUCACCGGAAUACCAGCAUCGUCUUGAUGCCCUUGGAAGUCCGGUCUGAUGAGUCCCUUAAGGACGAAACAGC [CUUAA]: 1.61
- GCUGUCACCGGAAUACCAGCAUCGUCUUGAUGCCCUUGGAAGUCCGGUCUGAUGAGUCCUGGGAGGACGAAACAGC [UGGGA]: 1.62
- GCUGUCACCGGAAUACCAGCAUCGUCUUGAUGCCCUUGGAAGUCCGGUCUGAUGAGUCCUGUCUGGACGAAACAGC [UGUCU]: 1.99
- GCUGUCACCGGAAUACCAGCAUCGUCUUGAUGCCCUUGGAAGUCCGGUCUGAUGAGUCCCACGCGGACGAAACAGC [CACGC]: 2
- GCUGUCACCGGAAUACCAGCAUCGUCUUGAUGCCCUUGGAAGUCCGGUCUGAUGAGUCCAAUGCGGACGAAACAGC [AAUGC]: 1.89
- GCUGUCACCGGAAUACCAGCAUCGUCUUGAUGCCCUUGGAAGUCCGGUCUGAUGAGUCCCUGAUGGACGAAACAGC [CUGAU]: 1.72
- GCUGUCACCGGAAUACCAGCAUCGUCUUGAUGCCCUUGGAAGUCCGGUCUGAUGAGUCCAAUCAGGACGAAACAGC [AAUCA]: 1.7
- GCUGUCACCGGAAUACCAGCAUCGUCUUGAUGCCCUUGGAAGUCCGGUCUGAUGAGUCCAUAUGGGACGAAACAGC [AUAUG]: 1.8
- GCUGUCACCGGAAUACCAGCAUCGUCUUGAUGCCCUUGGAAGUCCGGUCUGAUGAGUCCUACUGGGACGAAACAGC [UACUG]: 1.94
- GCUGUCACCGGAAUACCAGCAUCGUCUUGAUGCCCUUGGAAGUCCGGUCUGAUGAGUCCAUUGCGGACGAAACAGC [AUUGC]: 2.01
- GCUGUCACCGGAAUACCAGCAUCGUCUUGAUGCCCUUGGAAGUCCGGUCUGAUGAGUCCCGAUAGGACGAAACAGC [CGAUA]: 1.21
- GCUGUCACCGGAAUACCAGCAUCGUCUUGAUGCCCUUGGAAGUCCGGUCUGAUGAGUCCUAAUCGGACGAAACAGC [UAAUC]: 1.94
- GCUGUCACCGGAAUACCAGCAUCGUCUUGAUGCCCUUGGAAGUCCGGUCUGAUGAGUCCACUACGGACGAAACAGC [ACUAC]: 1.98
- GCUGUCACCGGAAUACCAGCAUCGUCUUGAUGCCCUUGGAAGUCCGGUCUGAUGAGUCCACGAGGGACGAAACAGC [ACGAG]: 1.85
- GCUGUCACCGGAAUACCAGCAUCGUCUUGAUGCCCUUGGAAGUCCGGUCUGAUGAGUCCUAGAAGGACGAAACAGC [UAGAA]: 1.43
- GCUGUCACCGGAAUACCAGCAUCGUCUUGAUGCCCUUGGAAGUCCGGUCUGAUGAGUCCCGGCAGGACGAAACAGC [CGGCA]: 1.49
- GCUGUCACCGGAAUACCAGCAUCGUCUUGAUGCCCUUGGAAGUCCGGUCUGAUGAGUCCCACAAGGACGAAACAGC [CACAA]: 1.56
- GCUGUCACCGGAAUACCAGCAUCGUCUUGAUGCCCUUGGAAGUCCGGUCUGAUGAGUCCUGCCCGGACGAAACAGC [UGCCC]: 2.03
